Test system: Streptococcus
EXPERIMENT_SUMMARY: GAS UMAA2166 growth inhibition – luminescence, BacTiterGlo, counter-screen for streptokinase expression inhibitor project, dose response (AID 1915);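 note: potency for reduction of bacterial viability or growth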
Assay type: functional, organism-based
Counter-ions that a name gives are not always drawn. The source made the active and inactive calls. Cut-off read from the data, not from the text of the source: actives have a measured EC50 and inactives only a lower limit.
For each entry below, report its EC50 value.

>>> result("COc1ccc(Br)cc1S(=O)(=O)Nc1nc[nH]n1")
"> 150 µM (not active)"
>>> result("N#Cc1c(Nc2cccc(F)c2)sc2c(O)cc(O)nc12")
"5.71 µM (active)"
>>> result("CCOc1ccccc1NC(=O)c1nc(S(=O)(=O)Cc2ccccc2)ncc1Cl")
"13.7 µM (active)"
>>> result("NC1CCN(c2nc3c(cc2F)c(=O)c(C(=O)O)cn3-c2ccc(F)cc2F)C1 (stereo not given) [TOSUFLOXACIN TOSYLATE]")
"0.999 µM (active)"

Next item in the queue.
Task item: Quick check: EC50 of Cc1n[nH]c(Nc2ccc(C(C)C)cc2)c1[N+](=O)[O-] ?
Reply: > 150 µM (not active)
